- Test system: Mycolicibacterium smegmatis
- MEASUREMENT NOTES: Antibiofilm activity against Mycobacterium smegmatis str. MC2 155 ATCC 700084 after 48 hrs by crystal violet staining based […] assay
- Format: functional, organism-based
- PROTOCOL CONDITIONS: MC2 155 ATCC 700084, 48 h
PROPERTY NAME: IC50 (µM)
Numbers only, in µM.

Answered examples (3):
>>> readout_number("Cl.Nc1ncc2cc(NC(=O)c3ccc(Cl)cc3)ccc2n1")
15
>>> readout_number("Nc1ncc2cc(NC(=O)c3cc(F)cc(F)c3)ccc2n1")
46
>>> readout_number("CCCS(=O)(=O)Nc1ccc2nc(N)ncc2c1")
36

The record that follows has no IC50 shown yet.
q: In one line, give reported IC50 of the entry Cc1ccc(C(=O)Nc2ccc3nc(N)ncc3c2)cc1 .
a: 19

====

For each record, write down the corresponding pIC50.
- Test system: Mycolicibacterium smegmatis
- MEASUREMENT NOTES: Antibiofilm activity against Mycobacterium smegmatis str. MC2 155 ATCC 700084 after 48 hrs by crystal violet staining based […] assay
- Type: functional, organism-based
- PROTOCOL CONDITIONS: MC2 155 ATCC 700084, 48 h
pIC50: −log10 of the molar value.

# return pIC50 for each item in the list
1. Nc1ncc2cc(NC(=O)c3ccc(I)cc3)ccc2n1
2. CCCCCCCc1ccc(C(=O)Nc2ccc3nc(N)ncc3c2)cc1
3. Nc1ncc2cc(NS(=O)(=O)c3cccs3)ccc2n1
4. CCCCCCS(=O)(=O)Nc1ccc2nc(N)ncc2c1

a:
1. < 3.70
2. < 4.00
3. < 4.00
4. < 4.00
